target or system: T1, biotinylated recombinant human αvβ8 integrin (human, UniProt P06756 31-1048; P26012 43-684, biotin (chain and site not stated) | biotin (chain and site not stated))
T1 chain 1: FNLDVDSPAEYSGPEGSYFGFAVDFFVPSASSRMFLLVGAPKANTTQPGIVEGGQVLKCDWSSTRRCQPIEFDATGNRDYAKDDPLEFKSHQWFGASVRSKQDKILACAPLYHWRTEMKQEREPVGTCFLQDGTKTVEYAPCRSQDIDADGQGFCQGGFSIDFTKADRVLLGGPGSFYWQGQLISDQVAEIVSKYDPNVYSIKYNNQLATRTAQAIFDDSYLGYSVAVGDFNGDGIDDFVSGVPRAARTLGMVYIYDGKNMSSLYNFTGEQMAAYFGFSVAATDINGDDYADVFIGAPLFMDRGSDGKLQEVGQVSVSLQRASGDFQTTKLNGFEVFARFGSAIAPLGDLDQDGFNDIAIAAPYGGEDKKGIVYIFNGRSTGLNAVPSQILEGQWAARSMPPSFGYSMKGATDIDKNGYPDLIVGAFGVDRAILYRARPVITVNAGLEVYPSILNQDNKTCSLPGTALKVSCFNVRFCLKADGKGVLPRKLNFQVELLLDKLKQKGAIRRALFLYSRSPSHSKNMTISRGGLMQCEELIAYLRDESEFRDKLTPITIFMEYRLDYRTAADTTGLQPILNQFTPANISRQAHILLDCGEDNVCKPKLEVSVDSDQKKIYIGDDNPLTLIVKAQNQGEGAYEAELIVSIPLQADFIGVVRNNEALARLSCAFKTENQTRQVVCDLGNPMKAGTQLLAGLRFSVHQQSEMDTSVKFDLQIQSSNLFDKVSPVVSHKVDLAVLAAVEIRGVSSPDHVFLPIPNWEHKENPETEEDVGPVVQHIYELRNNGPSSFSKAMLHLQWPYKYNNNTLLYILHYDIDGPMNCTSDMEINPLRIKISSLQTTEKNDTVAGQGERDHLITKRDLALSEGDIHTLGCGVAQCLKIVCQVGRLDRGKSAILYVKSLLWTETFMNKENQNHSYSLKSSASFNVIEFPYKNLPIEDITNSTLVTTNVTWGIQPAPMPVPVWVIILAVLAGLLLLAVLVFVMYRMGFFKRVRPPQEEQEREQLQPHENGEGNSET
T1 chain 2: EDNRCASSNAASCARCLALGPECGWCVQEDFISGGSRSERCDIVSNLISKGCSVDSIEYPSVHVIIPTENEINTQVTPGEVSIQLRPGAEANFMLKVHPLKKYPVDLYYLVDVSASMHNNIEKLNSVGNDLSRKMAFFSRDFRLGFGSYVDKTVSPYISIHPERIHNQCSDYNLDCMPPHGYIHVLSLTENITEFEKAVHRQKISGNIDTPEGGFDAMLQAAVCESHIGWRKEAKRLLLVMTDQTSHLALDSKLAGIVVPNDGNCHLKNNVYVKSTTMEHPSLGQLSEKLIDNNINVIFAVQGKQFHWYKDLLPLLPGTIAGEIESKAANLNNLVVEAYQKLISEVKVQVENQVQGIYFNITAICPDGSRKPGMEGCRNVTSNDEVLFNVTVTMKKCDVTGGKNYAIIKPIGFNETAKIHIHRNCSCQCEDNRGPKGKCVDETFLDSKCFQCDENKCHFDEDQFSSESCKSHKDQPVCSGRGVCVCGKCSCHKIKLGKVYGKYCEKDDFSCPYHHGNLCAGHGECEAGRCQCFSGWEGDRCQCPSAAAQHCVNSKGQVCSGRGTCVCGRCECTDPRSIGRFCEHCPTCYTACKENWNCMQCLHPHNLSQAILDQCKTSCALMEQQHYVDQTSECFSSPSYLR
experiment notes: ELISA; competition with latent TGFβ1
Bridge positions count the residues as written; N and C are the ends. Square brackets hold non-standard residues; d marks the D form. Ends that are not written are not given here. Lys(N3) = [N-]=[N+]=NCCCC[C@H](N)C(=O)O; Pra = C#CC[C@H](N)C(=O)O
recorded endpoint: pKi
Reminder that pKi is minus the log10 of a molar concentration.

### Prompt // pKi lookup, key: CFETLRGDLRILSILR[Pra]QNL[Lys(N3)]KELQD-NH2 (triazole 17-21) [peptide 5a (chromogranin A-derived peptide)]
### Response 8.56

Source listed as paper PMC11889887.
